// provenance: ChEMBL document CHEMBL1961873

Listed compounds paired with reported inhibition
# Test system: Tyrosine-protein kinase ABL2 (Homo sapiens) (UniProt P42684)
# Sequence (P42684 whole entry): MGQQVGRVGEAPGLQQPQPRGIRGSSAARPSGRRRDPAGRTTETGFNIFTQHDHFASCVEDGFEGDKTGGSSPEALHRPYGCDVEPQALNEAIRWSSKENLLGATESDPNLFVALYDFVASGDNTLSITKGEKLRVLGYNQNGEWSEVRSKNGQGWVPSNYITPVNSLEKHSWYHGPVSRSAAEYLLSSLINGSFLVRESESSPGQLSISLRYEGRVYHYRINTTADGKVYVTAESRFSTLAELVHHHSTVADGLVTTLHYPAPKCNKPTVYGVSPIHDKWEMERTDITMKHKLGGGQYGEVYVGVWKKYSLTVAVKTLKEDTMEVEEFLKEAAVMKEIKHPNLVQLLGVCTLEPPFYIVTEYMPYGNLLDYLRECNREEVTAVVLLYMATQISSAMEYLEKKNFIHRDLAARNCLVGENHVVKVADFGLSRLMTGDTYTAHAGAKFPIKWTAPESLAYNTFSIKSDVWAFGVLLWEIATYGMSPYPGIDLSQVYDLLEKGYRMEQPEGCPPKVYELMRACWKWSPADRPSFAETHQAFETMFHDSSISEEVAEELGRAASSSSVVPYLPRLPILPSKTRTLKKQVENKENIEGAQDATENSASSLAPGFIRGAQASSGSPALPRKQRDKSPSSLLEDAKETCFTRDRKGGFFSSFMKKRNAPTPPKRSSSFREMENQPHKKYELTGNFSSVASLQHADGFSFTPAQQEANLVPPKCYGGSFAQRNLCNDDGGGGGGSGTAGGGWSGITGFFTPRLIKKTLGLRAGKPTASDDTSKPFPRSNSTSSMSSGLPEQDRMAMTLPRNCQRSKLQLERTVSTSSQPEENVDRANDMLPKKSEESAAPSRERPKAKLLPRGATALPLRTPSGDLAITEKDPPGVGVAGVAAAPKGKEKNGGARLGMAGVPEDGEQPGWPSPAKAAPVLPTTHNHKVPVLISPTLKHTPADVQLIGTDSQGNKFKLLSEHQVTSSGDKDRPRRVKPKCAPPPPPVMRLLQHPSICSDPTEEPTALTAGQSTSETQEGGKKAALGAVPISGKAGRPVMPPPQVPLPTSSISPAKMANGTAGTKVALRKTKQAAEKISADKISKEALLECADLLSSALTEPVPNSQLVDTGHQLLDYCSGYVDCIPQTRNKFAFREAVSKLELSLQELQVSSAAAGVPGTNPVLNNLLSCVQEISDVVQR
# Measurement conditions: at 1 µM
# Description: GSK_PKIS: ARG mean inhibition at 1 uM [Nanosyn]
Field format: number, assumed %, no unit text.

Please review the entries below; each comes with its answer.
CCn1c(-c2nonc2N)nc2cncc(C(=O)N3CCNCC3)c21 = 4.42
CN(C)c1cc2c(Nc3ccc4nc(Cc5ccccc5)[nH]c4c3)ncnc2cn1 = 7.06
NC(=O)c1ccc(-c2nc(-c3ccccn3)c(-c3ccc4c(c3)OCO4)[nH]2)cc1 = 6.03
COc1ccc2cc(-c3c(-c4ccncc4)nc(-c4ccc([S+](C)[O-])cc4)n3C)ccc2c1 (stereo not given) = 9.3

// switching to the query compound
In: Provide only the value of recorded inhibition for COc1cc2ncn(-c3cc(OCc4ccccc4C(F)(F)F)c(C(N)=O)s3)c2cc1OC
Out: 13.2
